- experimental target: UniProtKB P14902
- method summary: IDO1 PBMC RapidFire MS assay (kynurenine detection by mass spectrometry)
- Type: cell-based
- Set-up: to induce the expression of indoleamine 2, 3-dioxygenase (IDO1); host or cells: human PBMC stimulated with IFN-gamma and LPS
- condition info: human PBMC stimulated with IFN-γ and LPS, 2 days, pIC50, read-out: PBMC PXC50 (converted)
reported endpoint: IC50 (nM)

compound: CC(C)CN(c1ccc(C(C)CC(=O)O)cc1Nc1nnc(C(=O)N(C)C)s1)C1CCCCC1 (stereo not shown)
IC50 / nM: 50.1
--
compound: CC(C)CN(CCCCCNC(=O)OC1CC/C=C/CCC1)c1ccc(C(C)CC(=O)O)cc1Nc1nc(C(F)(F)F)ns1 (stereo not shown)
IC50 / nM: 100

P. CC(C)CN(c1ccc([C@H](C)CC(=O)O)cc1Nc1ccc(Cl)c(Cl)n1)C1CCOCC1
Q. CC(C)CN(c1ccc([C@H](C)CC(=O)O)cc1Nc1ccc(C#N)cn1)C1CCOCC1
Q) Returns: the argument ( P or Q ) having the larger IC50. # answer = label of selected item
A) P

###

- experimental target: indoleamine 2, 3-dioxygenase (IDO1) (Homo sapiens)
- Sequence (P14902 whole entry): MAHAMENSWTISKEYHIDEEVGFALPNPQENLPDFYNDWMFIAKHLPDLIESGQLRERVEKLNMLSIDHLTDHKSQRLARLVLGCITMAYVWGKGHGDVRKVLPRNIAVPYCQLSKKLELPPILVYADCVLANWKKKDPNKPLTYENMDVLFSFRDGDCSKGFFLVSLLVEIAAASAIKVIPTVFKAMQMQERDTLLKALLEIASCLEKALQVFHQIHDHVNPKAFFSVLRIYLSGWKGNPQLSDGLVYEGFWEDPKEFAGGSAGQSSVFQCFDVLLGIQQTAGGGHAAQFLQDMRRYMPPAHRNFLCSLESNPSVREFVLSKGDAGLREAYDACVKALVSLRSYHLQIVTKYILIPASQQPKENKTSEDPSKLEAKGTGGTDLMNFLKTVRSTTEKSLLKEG
- method summary: IDO1 HeLa RapidFire MS assay (kynurenine detection by mass spectrometry)
- Type: cell-based
- Set-up: to induce the expression of indoleamine 2, 3-dioxygenase (IDO1)
- condition info: HeLa cells, pIC50, read-out: IDO1_HELA_PXC50 (converted)
reported endpoint: IC50 (µM)

compound: CC(C)CN(c1ccc(-c2ccccc2C(=O)NCCCCCN)cc1Nc1nc(C(F)(F)F)ns1)C1CCCCC1
endpoint unit: µM
endpoint result: 5.01

compound: CC(C)CN(c1ccc(-c2cnn(C)c2C(=O)O)cc1Nc1nc2ccccc2o1)C1CCCCC1
endpoint unit: µM
endpoint result: 3.16

compound: CC(C)CN(CC(C)C)c1ccc(-c2ccccc2C(=O)O)cc1Nc1nc(C(F)(F)F)ns1
endpoint unit: µM
endpoint result: 0.0251

compound: CC[C@H](CC(=O)O)c1ccc(N(CC(C)C)C2CCCCC2)c(Nc2nc(C(F)(F)F)ns2)c1
endpoint unit: µM
endpoint result: 0.002

compound: CC(C)CN(CC(C)C)c1ccc(-c2ccccc2C(=O)O)cc1Nc1nc2ccccc2[nH]1
endpoint unit: µM
endpoint result: 0.0501

compound: CC(C)CN(c1ccc([C@H](C)CC(=O)O)cc1NC(C)CCO)C1CCCCC1 (some centres unmarked)
endpoint unit: µM
endpoint result: 1.58

compound: CC(C)CN(c1ccc([C@H](C)CC(=O)O)cc1Nc1nnc(C(N)=O)s1)C1CCCCC1
endpoint unit: µM
endpoint result: 0.00794

compound: CC(C)CN(CC(C)C)c1ccc(C(C)CC(=O)O)cc1Nc1nc2ccccc2n1C (centres unmarked)
endpoint unit: µM
endpoint result: 1.26

compound: CC(C)CN(c1ccc(C(C)CC(=O)O)cc1NC1=NC(=O)[C@H](c2ccccc2)N1)C1CCCCC1 (some centres unmarked)
endpoint unit: µM
endpoint result: 0.794

compound: CC(C)CN(CC(C)C)c1ccc(C(C)CC(=O)O)cc1Nc1ccccc1 (centres unmarked)
endpoint unit: µM
endpoint result: 0.158

A. CC(C)CN(c1ccc(-c2cccnc2C(=O)O)cc1Nc1nc(C(F)(F)F)ns1)C1CCOCC1
B. COCc1ncc(Nc2cc(C(C)CC(=O)O)ccc2N(CC(C)C)CC(C)C)o1 (centres unmarked)
C. CC(C)CN(c1ccc([C@H](C)CC(=O)O)cc1Nc1nc(C(F)(F)F)ns1)[C@H]1CC[C@@H](O)CC1
Q) # rank_down: sort by IC50, max first // respond by listing labels in the order requested
A) B, A, C
(B: 2 µM, A: 0.316 µM, C: 0.01 µM)

I. CC(=O)N1CCC(Nc2cc(C(C)CC(=O)O)ccc2N(CC(C)C)C2CCCCC2)C1 (centres unmarked)
II. CC(C)CN(c1ccc(C(C)CC(=O)O)cc1NC1CCC(C)CC1)C1CCCCC1 (centres unmarked)
Q) Consider I and II . Which of these has its IC50 at a higher number? State the label of the item chosen.
A) I
